target: recombinant autotaxin (Homo sapiens, UniProt Q13822); assay: Autotaxin assay (Amplex Red fluorescence, LPC substrate); conditions: ten serial 1:3 dilutions starting at 30 μM, duplicates; 75 μM LPC; values given as upper bounds
pIC50: −log10 of the molar value.
Entries and their pIC50

test.smiles	pIC50
O=C(Nc1ccc2[nH]nnc2c1)c1[nH]nc2c1CCN(C(=O)OCc1ccc(OC(F)(F)F)c(Cl)c1)C2	> 6.00
O=C(Nc1ccc2[nH]nnc2c1)c1[nH]nc2c1CCN(C(=O)OCc1cccc(C(F)(F)F)c1)C2	> 6.00
NC(=O)c1c(NC(=O)Cc2cccc(Cl)c2)sc2c1CCN(C(=O)c1ccc3[nH]nnc3c1)C2	> 6.00
NC(=O)c1c(NC(=O)Nc2ccc(C(F)(F)F)cc2)sc2c1CCN(C(=O)c1ccc3[nH]nnc3c1)C2	> 6.00
NC(=O)c1c(NC(=O)Nc2ccc(Cl)cc2)sc2c1CCN(C(=O)c1ccc3[nH]nnc3c1)C2	> 6.00
O=C(Nc1ccc2[nH]nnc2c1)c1n[nH]c2c1CCN(C(=O)OCc1ccc(C(F)(F)F)cc1)C2	> 6.00

====

target: recombinant autotaxin (Homo sapiens, UniProt Q13822); construct: made in house; host or cells: Hi5 insect cells (baculovirus); test: Autotaxin assay (Amplex Red fluorescence, LPC substrate); format: biochemical; details: percent of uninhibited control (100%) at 1E−05 M compound
value.type: % CTRL (1E−05)

molecule	value.type	measured.value
O=C(Nc1ccc(C(F)(F)F)cc1)Nc1nc2ccc(C(=O)Nc3ccc4[nH]nnc4c3)cc2s1	% CTRL (1E−05)	64%
O=C(Nc1ccc(Cl)cc1)Nc1sc2c(c1C(=O)N1CCCC1)CCN(C(=O)c1ccc3[nH]nnc3c1)C2	% CTRL (1E−05)	52%
O=C(NC(CO)Cc1ccc(Cl)cc1)c1[nH]nc2c1CCN(C(=O)c1ccc3[nH]nnc3c1)C2 (stereo not shown)	% CTRL (1E−05)	73%
O=C(NCc1ccc(Cl)cc1F)c1[nH]nc2c1CCN(C(=O)c1ccc3[nH]nnc3c1)C2	% CTRL (1E−05)	76%

====

biological target: recombinant autotaxin (Homo sapiens, UniProt Q13822); assay: Autotaxin assay (Amplex Red fluorescence, LPC substrate); details: ten serial 1:3 dilutions starting at 30 μM, duplicates; 75 μM LPC; values given as upper bounds
pIC50: −log10 of the molar value.
Entries and their pIC50
value.type: pIC50

molecule	measured.value
COC(=O)CC(NC(=O)c1[nH]nc2c1CCN(C(=O)c1ccc3[nH]nnc3c1)C2)c1ccc(C(C)(C)C)cc1 (stereo not shown)	> 4.52
O=C(NCCc1ccc(Cl)cc1)c1[nH]nc2c1CCN(C(=O)c1ccc3[nH]nnc3c1)C2	> 6.00
O=C(NCc1ccc(C(F)(F)F)cc1)c1[nH]nc2c1CCN(C(=O)c1ccc3[nH]nnc3c1)C2	> 5.00
CC(C)c1ccc(NC(=O)Nc2sc3c(c2C(N)=O)CCN(C(=O)c2ccc4[nH]c(=O)oc4c2)C3)cc1	> 6.00

====

Target: recombinant autotaxin (Homo sapiens)
Construct: made in house; host or cells: Hi5 insect cells (baculovirus)
Test: Autotaxin assay (Amplex Red fluorescence, LPC substrate)
Assay type: biochemical
Conditions: percent of uninhibited control (100%) at 1E−05 M compound
Protocol: Autotaxin activity is measured indirectly by means of Amplex Red Reagent. In this course, Amplex Red is measured as fluorogenic indicator for generated H2O2. […] The generated fluorescence is measured in a reaction-dependent kinetic mode in order to enable subtraction of fluorescence signals of possible other fluorescent compounds that are not part of the reaction from total measured fluorescence. […] IC50 values were calculated on normalized data. […]

test.smiles	% CTRL (1E−05) (%)
NC(=O)c1c(NC(=O)Nc2ccc(Cl)cc2)sc2c1CCN(Cc1ccccn1)C2	88
O=C(Nc1ccc(Cl)cc1)Nc1nc2ccc(C(=O)Nc3ccc4[nH]c(=O)oc4c3)cc2s1	94
O=C(Nc1ccc(C(F)(F)F)cc1)Nc1nc2ccc(C(=O)Nc3ccc4[nH]c(=O)oc4c3)cc2s1	93
COc1ccccc1CNC(=O)c1[nH]nc2c1CCN(C(=O)c1ccc3[nH]nnc3c1)C2	66
NC(=O)c1c(NC(=O)Cc2ccc(Cl)cc2F)sc2c1CCN(Cc1ccccn1)C2	66

====

target: recombinant autotaxin (Homo sapiens); construct: made in house; host or cells: Hi5 insect cells (baculovirus); experiment: Autotaxin assay (Amplex Red fluorescence, LPC substrate); type: biochemical; details: ten serial 1:3 dilutions starting at 30 μM, duplicates; 75 μM LPC; values given as upper bounds

test.smiles	IC50
NC(=O)c1c(NC(=O)Nc2ccc(Cl)cc2F)sc2c1CCN(C(=O)c1ccc3[nH]nnc3c1)C2	< 1000 nM
O=C(NCc1ccc(F)c(Br)c1)c1[nH]nc2c1CCN(C(=O)c1ccc3[nH]nnc3c1)C2	< 1000 nM
NC(=O)c1c(NC(=O)Cc2ccc(Cl)cc2F)sc2c1CCN(C(=O)c1ccc3[nH]nnc3c1)C2	< 1000 nM
O=C(Nc1ccc2[nH]nnc2c1)c1[nH]nc2c1CCN(C(=O)OCc1ccc(OC(F)(F)F)cc1)C2	< 10000 nM

Data credit: patent US8497283B2
